These entries and their values trace back to paper PMC3926237.

Target: cruzipain (Cz) (Trypanosoma cruzi, UniProt P25779)
Sequence (P25779 123-467): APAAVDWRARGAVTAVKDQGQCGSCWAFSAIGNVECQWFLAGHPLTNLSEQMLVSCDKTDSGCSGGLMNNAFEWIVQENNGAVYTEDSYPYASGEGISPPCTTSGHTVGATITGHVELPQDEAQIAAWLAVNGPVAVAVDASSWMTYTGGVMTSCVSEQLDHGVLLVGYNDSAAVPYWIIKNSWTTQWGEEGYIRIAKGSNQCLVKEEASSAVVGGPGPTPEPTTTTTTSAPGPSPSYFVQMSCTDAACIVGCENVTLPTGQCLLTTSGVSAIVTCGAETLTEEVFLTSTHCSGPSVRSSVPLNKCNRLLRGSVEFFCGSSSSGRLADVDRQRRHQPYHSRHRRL
value.type: IC50
Respond with a number, then the unit of measure.

query: Which IC50 is reported for this compound? `N[C@@H](Cc1cc(I)c(Oc2cc(I)c(O)c(I)c2)c(I)c1)C(=O)O`
result: 38.4 µM
